// provenance: paper PMC11492828

# Tested on: human neuroblastoma (SH-SY5Y) cells
# TEST: Cytotoxicity/cell viability MTT assay
# Type: cell-based
# REPORTED_CONDITIONS: SH-SY5Y cells, MTT
ASSAY_METRIC: Nature in cytotoxicity study

{"columns": ["SMILES_ENTRY", "RESULT"],
 "data": [
  ["CC(/C=C/c1ccc(OCC(=O)Nc2ccccc2)cc1)=N\\O", "cytotoxic"],
  ["COc1cc(/C=C/C(C)=N/O)ccc1OCC(=O)Nc1ccccc1C", "cytotoxic"],
  ["COc1cc(/C=C/C(C)=N/O)ccc1OCC(=O)Nc1ccccc1", "cytotoxic"],
  ["CC(/C=C/c1ccc(OCC(=O)Nc2ccccc2F)cc1)=N\\O", "cytotoxic"]
]}

----------
# Tested on: human neuroblastoma (SH-SY5Y) cells
# TEST: Cytotoxicity/cell viability MTT assay
# Type: cell-based
# REPORTED_CONDITIONS: read-out: IC50 MTT assay; SH-SY5Y cells
# IC50 annotations

{"columns": ["SMILES_ENTRY", "IC50"],
 "data": [
  ["COc1cc(/C=C/C(C)=N/O)ccc1OCC(=O)Nc1cccc(C)c1", "> 100 µM"]
]}

The record that follows has no IC50 shown yet.
Query: Could you please provide reported IC50 for COc1cc(/C=C/C(C)=N/O)ccc1OCC(=O)Nc1ccc(Cl)cc1 ? Thanks!
Result: > 100 µM
